molecular target: T1, ectodomain of human pIgR (R&D Systems Cat #2717-PG) (human, UniProt P01833 19-638); test: competition ELISA, dilution series of purified Nanobody against 1 ug/ml IgA on immobilised pIgR ectodomain
T1 construct: extracellular domain; Immobilised on Maxisorp plates at 5 ug/ml; also called pIgR ectodomain
T1 sequence (P01833 19-638): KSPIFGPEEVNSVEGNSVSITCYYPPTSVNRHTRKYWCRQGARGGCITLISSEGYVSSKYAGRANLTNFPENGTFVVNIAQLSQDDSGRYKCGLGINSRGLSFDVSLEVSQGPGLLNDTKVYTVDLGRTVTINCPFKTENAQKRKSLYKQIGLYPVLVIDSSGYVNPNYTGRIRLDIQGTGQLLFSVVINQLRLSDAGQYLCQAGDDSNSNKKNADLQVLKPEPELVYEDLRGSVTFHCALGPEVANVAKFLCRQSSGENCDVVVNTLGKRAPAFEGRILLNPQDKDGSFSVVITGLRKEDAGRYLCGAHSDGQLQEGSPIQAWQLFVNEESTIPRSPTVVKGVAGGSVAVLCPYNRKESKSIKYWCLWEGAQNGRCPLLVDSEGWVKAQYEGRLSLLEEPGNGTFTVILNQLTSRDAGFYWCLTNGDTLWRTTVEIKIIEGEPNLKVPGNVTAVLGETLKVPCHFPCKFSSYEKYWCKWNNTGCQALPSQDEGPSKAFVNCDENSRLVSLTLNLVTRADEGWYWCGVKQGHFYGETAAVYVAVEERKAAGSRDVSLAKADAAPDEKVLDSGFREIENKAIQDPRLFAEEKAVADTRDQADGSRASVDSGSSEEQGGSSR

[
  {
    "Binder": "1E7 (VHH, Carries a myc tag (detected with anti-myc)) VHH: EVQLVESGGGLVQAGGSLRLSCAASGRTFSNYVMGWFRQAPGKEREFVAAISWSGVTTYHYSADSVKGRFTTSRDNDRNTAHLQMNSLKPEDTAVYYCAARGRTGSDPRKGDDYDYWGQGTQVTVSS",
    "binding result": "binds"
  },
  {
    "Binder": "4B11 (VHH, Carries myc and His tags) VHH: EVQLVESGGGLVQPGGSLRLSCAASGFTLDYYAIGWFRQAPGKEREGVSCISSSDMSDGITYYADSVKGRFTSSRDNVKNTVYLQMNSLKPEDTAVYYCATTFGDACTVVAGIPDQADFDSWGQGTQVTVSS",
    "binding result": "binds"
  },
  {
    "Binder": "4D9 (VHH) VHH: EVQLVESGGGLVQPGGSLRLSCAASGFTLDYYDIGWFRQAPGKEREGVSCTSSSDGSTYYADSVKGRFTISRDNAKNTVYLQMNSLKPEDTAVYYCATTFGDACTVVAGIPDQYDFGSWGQGTQVTVSS",
    "binding result": "binds"
  }
]
